Biological target: glucose oxidase (Aspergillus niger)
Construct: purchased Biocatalysts G575P
Sequence (P13006 17-605): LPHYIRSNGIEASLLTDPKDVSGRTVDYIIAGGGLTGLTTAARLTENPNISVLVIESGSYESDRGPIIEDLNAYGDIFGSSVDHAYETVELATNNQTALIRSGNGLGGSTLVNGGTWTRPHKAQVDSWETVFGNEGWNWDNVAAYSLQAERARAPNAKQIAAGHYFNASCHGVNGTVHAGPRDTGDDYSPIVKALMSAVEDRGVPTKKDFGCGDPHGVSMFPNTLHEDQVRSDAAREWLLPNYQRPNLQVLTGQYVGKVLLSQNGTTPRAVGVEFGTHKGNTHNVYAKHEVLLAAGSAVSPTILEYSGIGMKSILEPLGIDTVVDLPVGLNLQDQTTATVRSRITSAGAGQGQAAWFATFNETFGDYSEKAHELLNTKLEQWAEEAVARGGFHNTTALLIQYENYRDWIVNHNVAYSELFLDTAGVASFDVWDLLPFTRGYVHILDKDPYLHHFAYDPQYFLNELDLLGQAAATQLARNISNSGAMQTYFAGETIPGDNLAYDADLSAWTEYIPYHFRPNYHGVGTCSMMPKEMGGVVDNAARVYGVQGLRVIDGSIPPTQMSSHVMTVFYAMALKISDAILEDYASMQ
Test: Activity recovery of glucose oxidase in dry formulations following gamma irradiation
Format: physicochemical
Conditions: Table 9, superoxide scavengers; glucose oxidase 350 μg mL^−1 prior to drying; dry; 25-40 kGy
Endpoint name: Enzyme activity remaining after gamma-irradiation (%)
Answers are plain numbers, in %.

O=S(=O)(O)c1cc(O)c(O)c(S(=O)(=O)O)c1 [Tiron] = 27.5
OC[C@@H](O)[C@@H](O)[C@H](O)[C@H](O)CO [Mannitol] = 17.2
O=C(O)CC(O)(CC(=O)O)C(=O)O [Citrate] = 32.0

Below are 2 compounds. Give each one its Enzyme activity remaining after gamma-irradiation.
1. CSCC[C@H](N)C(=O)O [Methionine]
2. O=C(O)CC(O)C(=O)O (centres unmarked) [Malate]

1: 61.3; 2: 40.7

* * *

Molecular target: human growth hormone (Homo sapiens)
Construct: purchased National Institute of Biological Standards and Control; further samples on prescription from a GP surgery
Sequence (P01241 27-217): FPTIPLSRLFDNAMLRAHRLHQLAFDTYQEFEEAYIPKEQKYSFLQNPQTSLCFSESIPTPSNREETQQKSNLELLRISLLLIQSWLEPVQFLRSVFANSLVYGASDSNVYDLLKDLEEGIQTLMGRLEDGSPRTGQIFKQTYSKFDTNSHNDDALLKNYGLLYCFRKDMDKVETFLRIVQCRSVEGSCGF
Assay: Recovery of structural integrity of human growth hormone in dry formulations following gamma irradiation (HPLC)
Assay type: physicochemical
Details: Table 11, superoxide scavengers, structural integrity by HPLC, human growth hormone 2.5 mg mL^−1 prior to drying, 25-40 kGy
Endpoint name: Structural integrity remaining after gamma-irradiation (HPLC) (%)
Answers are plain numbers, in %.

Examples from the recorded data:
OC[C@@H](O)[C@@H](O)[C@H](O)[C@H](O)CO = 28.3
O=S(=O)(O)c1cc(O)c(O)c(S(=O)(=O)O)c1 = 55.7
O=C(O)CC(O)(CC(=O)O)C(=O)O [Citrate] = 45.6
O=C(O)CC(O)C(=O)O (centres unmarked) [Malate] = 52.1

Let us move to another entry and its Structural integrity remaining after gamma-irradiation (HPLC).
Kindly state the measured Structural integrity remaining after gamma-irradiation (HPLC) obtained for CSCC[C@H](N)C(=O)O with human growth hormone (Homo sapiens).
69.7

* * *

Target: catalase (Bos taurus)
Construct: Catalase (from bovine liver, Sigma C9322, 2380 U /mg solid); purchased Sigma C9322; host or cells: bovine liver
Sequence (P00432 2-527 limits assumed): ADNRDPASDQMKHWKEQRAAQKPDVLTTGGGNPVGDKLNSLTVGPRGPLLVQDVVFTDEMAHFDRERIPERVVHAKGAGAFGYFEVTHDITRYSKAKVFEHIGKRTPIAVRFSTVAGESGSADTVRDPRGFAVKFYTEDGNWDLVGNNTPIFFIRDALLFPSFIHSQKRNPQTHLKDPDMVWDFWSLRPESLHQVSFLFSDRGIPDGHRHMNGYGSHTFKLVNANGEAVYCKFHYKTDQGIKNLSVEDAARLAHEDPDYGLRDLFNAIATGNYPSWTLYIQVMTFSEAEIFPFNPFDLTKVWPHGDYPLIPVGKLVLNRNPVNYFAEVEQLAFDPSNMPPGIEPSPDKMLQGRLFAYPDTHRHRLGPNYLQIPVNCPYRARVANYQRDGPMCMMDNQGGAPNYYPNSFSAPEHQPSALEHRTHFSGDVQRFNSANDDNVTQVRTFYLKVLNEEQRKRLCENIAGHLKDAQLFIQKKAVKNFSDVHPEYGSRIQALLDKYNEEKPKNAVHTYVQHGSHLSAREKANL
Experiment: Activity recovery of catalase in dry formulations following gamma irradiation
Type: physicochemical, bovine
Details: Table 6, singlet oxygen scavengers; catalase 100 μg mL^−1 prior to drying; dry; 25-40 kGy, ambient temperature
Give Enzyme activity remaining after gamma-irradiation for every item shown.
Answers are plain numbers, in %.

Examples from the recorded data:
C[C@H](N)C(=O)O = 8.8
N[C@@H](Cc1c[nH]cn1)C(=O)O = 18.3
N[C@@H](Cc1c[nH]c2ccccc12)C(=O)O = 9.1

Suppose we examine the compound Cc1ncc(C[n+]2csc(CCO)c2C)c(N)n1 ; what Enzyme activity remaining after gamma-irradiation value has been reported?
26.1

Source of measurements: patent US20100029542A1
